System: dengue virus type 2
Experiment: Inhibition of DENV2 NS2B-NS3 protease assessed as residual activity up to 200 uM using Benzoyl-Nle-Lys-Arg-Arg-AMC as substrate preincubated for 3 mins followed by substrate addition by fluorescence spectrophotometer
measuredParameter: Activity

structureString: O=C1[C@@H]2CCCN2[C@@H](c2ccc(Cl)cc2)N1c1ccc([N+](=O)[O-])cc1
Activity: > 50%
//
structureString: O=C1[C@@H]2CCCN2[C@@H](Cc2ccc([N+](=O)[O-])cc2)N1c1ccc([N+](=O)[O-])cc1
Activity: > 50%
//
structureString: O=C1[C@@H]2CCCN2[C@H](c2ccc(C(F)(F)F)cc2)N1c1ccc([N+](=O)[O-])cc1
Activity: > 50%
//
structureString: O=C1[C@@H]2CCCN2[C@H](c2ccc([N+](=O)[O-])cc2)N1c1ccc([N+](=O)[O-])cc1
Activity: > 50%

We now examine a further molecule.
Challenge: I'm curious: which Activity was measured for O=C1[C@@H]2CCCN2[C@@H](c2ccc(C(F)(F)F)cc2)N1c1ccc([N+](=O)[O-])cc1 tested on dengue virus type 2?
Response given: > 50%

* * *

We begin with a simple list: items and their reported CC50 at 48 h.
Test: Cytotoxicity against human HuH7 cells after 48 hrs by cell-titer glo luminescent viability assay
Format: cell-based, Huh-7
Peptide text beside a SMILES is read from it. * marks the point of attachment. pNA = O=[N+]([O-])c1ccc(N*)cc1

compound: CSCC[C@H](N)C(=O)N1CCC[C@H]1C(=O)Nc1ccc([N+](=O)[O-])cc1 (H-Met-Pro-pNA)
measuredParameter: CC50 at 48 h
measuredValue: > 100 µM

Challenge: Need CC50 at 48 h of O=C1[C@@H]2CCCN2[C@@H](c2ccc([N+](=O)[O-])cc2)N1c1ccc([N+](=O)[O-])cc1 , thanks.
Response given: > 100 µM

* * *

Tested on: Dengue virus
Test: Inhibition of DENV2 NS2B-NS3 protease assessed as residual activity at 16 uM using Benzoyl-Nle-Lys-Arg-Arg-AMC as substrate preincubated for 3 mins followed by substrate addition by fluorescence spectrophotometer
measuredParameter: Activity (%)
Unit % implied. Number only.

For orientation, consider the following solved cases.
structureString: CC[C@H]1N(c2ccc([N+](=O)[O-])cc2)C(=O)[C@@H]2CCCN21
Activity [%]: 40

structureString: CC(C)[C@H]1N(c2ccc([N+](=O)[O-])cc2)C(=O)[C@@H]2CCCN21
Activity [%]: 66

structureString: C[C@H]1N(c2ccc([N+](=O)[O-])cc2)C(=O)[C@@H]2CCCN21
Activity [%]: 58

// below: Activity requested for another molecule
Challenge: Provide value of Activity for this record tested with Dengue virus: O=C1[C@@H]2CCCN2CN1c1ccc([N+](=O)[O-])cc1
Response given: 61

* * *

Test: Inhibition of DENV2 NS2B-NS3 protease using Benzoyl-Nle-Lys-Arg-Arg-AMC as substrate preincubated for 3 mins followed by substrate addition by fluorescence spectrophotometer
Design: species or system Dengue virus
Peptide text beside a SMILES is read from it. * marks the point of attachment. pNA = O=[N+]([O-])c1ccc(N*)cc1
measuredParameter: pIC50
Give only the number. pIC50 is defined as minus log10 of concentration in molar units.

compound: CSCC[C@H](N)C(=O)N1CCC[C@H]1C(=O)Nc1ccc([N+](=O)[O-])cc1 (H-Met-Pro-pNA)
pIC50: 5.92

Next compound, please.
Challenge: Entry under review: O=C1[C@@H]2CCCN2[C@@H](c2ccc([N+](=O)[O-])cc2)N1c1ccc([N+](=O)[O-])cc1 . Reported pIC50?
Response given: 5.92
